test system: LOX IMVI melanoma; test: NCI-60 one-dose screen, 48 h; conditions: 10 µM unless noted
About 83,000 compounds went through this panel and 20% of them were active in at least one assay; those are over-represented in the sample as a whole. Calls of active or inactive are those of the source. The calls were made as follows: active = growth percent below 10; inactive = the rest.
Outcomes: yes (1) = active, no (0) = inactive

compound: NC(=O)c1ccc(NC(=O)c2oc3ccccc3c2-c2cnn(-c3ccccc3)c2)cc1
answer_label: yes (1)
//
compound: COc1cc(C(=O)/C=C/c2ccc(N3CCN(C)CC3)cc2)cc(OC)c1OC
answer_label: no (0)
//
compound: O=C(Nc1ncc(Cc2ccccc2Cl)s1)c1cccs1
answer_label: no (0)
//
compound: CCN(CC)c1ccc(/C=C\c2cc(C)c3cc(C)ccc3n2)cc1
answer_label: no (0)
//
compound: Cc1cc(C)c(-c2c(O)c(Br)c(-c3c(C)cc(C)c(Br)c3C)c(O)c2Br)c(C)c1Br
answer_label: yes (1)
//
compound: COc1cccc(/C=C2\COc3ccc(O)cc3C2=O)c1
answer_label: no (0)
//
compound: CC/C(Cc1ccccc1)=C(\c1ccc(OCCN2CCCCCC2)cc1)c1ccc(OC(=O)NCc2ccccc2)cc1
answer_label: yes (1)
//
compound: Cn1ccnc1C(=O)/C=C/c1ccc(C(=O)Nc2ccc(F)cc2)cc1
answer_label: yes (1)
//
compound: O=C1CCCc2nc3sc4c(=O)n(-c5ccccc5Cl)nnc4c3cc21
answer_label: no (0)
//
compound: CN1CCN(Cc2cc(NC(=O)c3cccc(C#Cc4cccc5[nH]nc(N)c45)c3)cc(C(F)(F)F)c2)CC1
answer_label: yes (1)
//
compound: c1ccc(CNc2ccc3nc(CCC4CCCCC4)[nH]c3c2)cc1
answer_label: no (0)
//
compound: CC[C@H](Nc1nc(N)nc(C)c1C#N)c1nc2cccc(NCCCCCC(=O)NO)c2c(=O)n1-c1ccccc1
answer_label: no (0)
//
compound: Cc1ccc(-c2nc(C#N)c(S(=O)(=O)NCCO)o2)cc1
answer_label: no (0)
//
compound: CC1(C)CC2=C3C=C[C@@H]4[C@@]5(C)CC[C@H](O)C(C)(C)[C@@H]5CC[C@@]4(C)[C@]3(C)CC[C@@]2(C(=O)O)CC1=O
answer_label: no (0)
//
compound: Cc1c(Cl)cccc1C(=O)Nc1nc2c(s1)CN(C(=O)Nc1cccc(C(F)(F)F)c1)CC2
answer_label: no (0)
//
compound: Cn1cccc1/C=C1\C(=O)Nc2ccccc21
answer_label: no (0)
//
compound: CC1=CCC[C@@H]2C1(C)CC[C@H](C)[C@@]2(C)CC1=CC(=O)C(SC(C)(C)C)=CC1=O (stereo not given in full)
answer_label: no (0)
//
compound: CN1CCN(CCOc2ccc(-c3cnc4c(-c5ccc(C(F)(F)F)cc5)cnn4c3)cc2)CC1
answer_label: yes (1)
//
compound: COc1ccc(C2=Nc3c/c(=C\c4c(O)[nH]c5cc(Cl)ccc45)ccc3=N2)cc1
answer_label: no (0)
//
compound: CCNc1nc(-c2ccc(F)cc2)c(C#N)c(=O)n1C
answer_label: no (0)
//
compound: O=C1c2cccnc2C(=O)c2c1c(C(=O)OCCCN1CCCCC1)c1ccccn21
answer_label: yes (1)
//
compound: Cc1ccc(/C=C(\C#N)C(=O)Nc2ncc(Cc3cc(Cl)ccc3Cl)s2)o1
answer_label: no (0)
//
compound: CN1C(=O)N(C)C2C1NC(=S)N2/N=C/C=C/c1ccccc1[N+](=O)[O-] (stereo not given)
answer_label: no (0)
//
compound: CC(=O)N/C(=C1/OC(C(O)C(O)C(O)CO)CN1C)[P+](c1ccccc1)(c1ccccc1)c1ccccc1 (stereo not given)
answer_label: no (0)
//
compound: O=C1c2cc3c(cc2-c2c1c1ccc(Cl)cc1c(=O)n2C[C@H](O)CO)OCO3
answer_label: yes (1)
//
compound: O=C(N/N=C/c1ccc([N+](=O)[O-])cc1)c1ccc2nc(-c3ccc(Cl)cc3)[nH]c2c1
answer_label: yes (1)
//
compound: C=C(CO)[C@@H]1CC[C@]2(COC3CCCCO3)CC[C@]3(C)[C@H](CC[C@@H]4[C@@]5(C)C=C(C=O)C(=O)C(C)(C)[C@@H]5CC[C@]43C)[C@@H]12 (stereo not given in full)
answer_label: yes (1)
//
compound: Cc1ncc(C(=O)Nc2ccc(CN3CCN(C)CC3)c(C(F)(F)F)c2)cc1C#Cc1cnc(N)c2cnccc12
answer_label: yes (1)
//
compound: Cc1[nH]c(/C=C/C(=O)c2ccc(C(F)(F)F)c(F)c2)c(C)c1C(=O)NCC(C)C
answer_label: no (0)
//
compound: Cn1cc(-c2nn3cc(-c4ccccc4)nc3s2)c2ccccc21
answer_label: no (0)
//
compound: CS(=O)(=O)Nc1cncc(-c2ccc3ncnc(Nc4ccc(F)c(Cl)c4)c3c2)c1
answer_label: no (0)
//
compound: C/C(=N\O)C(=O)NCCCCCC(=O)Nc1ccccc1
answer_label: no (0)
//
compound: O=C1NC(=Nc2ccc(O)cc2)S/C1=C\c1cccs1
answer_label: no (0)
//
compound: Cc1cc(F)ccc1S(=O)(=O)Nc1cc(-c2c(O)ccc3ccccc23)c(O)c2ccccc12
answer_label: no (0)
//
compound: CCN(CC)CCOc1nc2c3ccc(Cl)cc3nn2c2ccccc12
answer_label: yes (1)
//
compound: Cn1c(/C=C/[N+](=O)[O-])cc2ccccc21
answer_label: yes (1)
//
compound: Cc1ccccc1CNc1c2ccccc2nc2ccccc12
answer_label: yes (1)
//
compound: CN(C)c1ccc(/C=C/C(=O)c2ccccc2)cc1
answer_label: no (0)
//
compound: COc1ccc(NC(=O)c2sc3nc4c(cc3c2N)CCCC4)cc1
answer_label: no (0)
//
compound: CCN1C(=O)N(CC)C2C1NN=c1s/c(=C\c3cc4ccccc4[nH]3)c(=O)n12 (stereo not given)
answer_label: no (0)
